All figures here come from patent US7429679B2.

Please go through the items and note down their content (HPLC) upon 60° C. heat treatment.
Assay: Evaluation of stability: stringent 60° C. heat treatment, content by HPLC
Format: physicochemical
Parameters: reference not given here
Details: 60° C., 2 wks
Experimental: The sulphonic acid salts of sibutramine, prepared in Examples 1 to 5, and sibutramine hydrochloride monohydrate were exposed to a stringent 60° C. heat treatment. HPLC was performed under the following conditions. Wavelength of UV detection: 225 nm Column: octadecyl silica gel, C18 (4.6×150 mm, 5 μm) Mobile phase: an aqueous solution of ammonium phosphate monohydride (0.05 M) (adjusted to pH 6 with phosphoric acid): acetonitrile=35:65
Structures can show the parent of a compound that is named as a salt.
Give bare numbers.

INSERT INTO assay_data (compound, recorded_number) VALUES
  ('CC(C)CC(N(C)C)C1(c2ccc(Cl)cc2)CCC1 (stereo not shown) [Edisylate, sibutramine edisylate]', 1.000),
  ('CC(C)CC(N(C)C)C1(c2ccc(Cl)cc2)CCC1.CC1(C)C2CCC1(CS(=O)(=O)O)C(=O)C2 (stereo not shown) [Camsylate, sibutramine camsylate]', 0.999),
  ('CC(C)CC(N(C)C)C1(c2ccc(Cl)cc2)CCC1 (stereo not shown) [Tosylate, sibutramine tosylate]', 1.000);

Consider the additional compound presented here.
// content (HPLC) upon 60° C. heat treatment lookup, compound = CC(C)CC(N(C)C)C1(c2ccc(Cl)cc2)CCC1 (stereo not shown) [Besylate, sibutramine besylate] , result: 0.999

###

Please go through the items and note down their solubility.
experiment: Evaluation of solubility in distilled water and aqueous solutions having various pH values; format: physicochemical; conditions: DW (distilled water)
Where a name gives a salt, the structure may show the parent alone.
Reply with the number, then its unit.

INSERT INTO results (molecule, property, result) VALUES
  ('CC(C)CC(N(C)C)C1(c2ccc(Cl)cc2)CCC1 (stereo not shown) [Besylate, sibutramine besylate]', 'solubility', '19.18 mg/mL'),
  ('CC(C)CC(N(C)C)C1(c2ccc(Cl)cc2)CCC1 (stereo not shown) [Edisylate, sibutramine edisylate]', 'solubility', '25.98 mg/mL'),
  ('CC(C)CC(N(C)C)C1(c2ccc(Cl)cc2)CCC1 (stereo not shown) [Tosylate, sibutramine tosylate]', 'solubility', '24.32 mg/mL');

Consider the additional molecule presented here.
// solubility lookup, molecule = CC(C)CC(N(C)C)C1(c2ccc(Cl)cc2)CCC1.CC1(C)C2CCC1(CS(=O)(=O)O)C(=O)C2 (stereo not shown) [Camsylate, sibutramine camsylate] , result: 23.67 mg/mL

###

Please go through the items and note down their content (HPLC) in light stability test.
experiment: Evaluation of light stability: exposure to fluorescence at 25° C., ICH light stability test chamber, content by HPLC; assay type: physicochemical; parameters: reference not given here; details: fluorescence, 25° C., 2 wks
Where a name gives a salt, the structure may show the parent alone.
Answers are plain numbers.

Consider the following illustrative entries.
INSERT INTO results (compound, recorded_number) VALUES
  ('CC(C)CC(N(C)C)C1(c2ccc(Cl)cc2)CCC1 (stereo not shown) [Tosylate, sibutramine tosylate]', 0.999),
  ('CC(C)CC(N(C)C)C1(c2ccc(Cl)cc2)CCC1.CC1(C)C2CCC1(CS(=O)(=O)O)C(=O)C2 (stereo not shown) [Camsylate, sibutramine camsylate]', 1.000),
  ('CC(C)CC(N(C)C)C1(c2ccc(Cl)cc2)CCC1 (stereo not shown) [Edisylate, sibutramine edisylate]', 0.999);

Consider the additional compound presented here.
// content (HPLC) in light stability test lookup, compound = CC(C)CC(N(C)C)C1(c2ccc(Cl)cc2)CCC1 (stereo not shown) [Besylate, sibutramine besylate] , result: 0.999
